experiment_description: Evaluation of penetration into the center (plasma, CSF and tissue concentration by LC/MS/MS)
Type: in vivo, Cynomolgus monkeys
study_conditions: female, cynomolgus monkey, brain stem, subcutaneous; 0.1 mg/kg s.c., 180 minutes after administration, tissue homogenate, n=3; read-out: average concentration in brain stem tissue
result_type: concentration at 180 min (ng/mL)
Unit ng/mL implied. Number only.

Which measured concentration at 180 min value corresponds to `Cc1cc(C(=O)O)ccc1COc1cc2c(cc1N(CC(C)C)S(=O)(=O)c1nccs1)CCC2` ? 0.22

* * *

experiment_description: Evaluation of penetration into the center (plasma, CSF and tissue concentration by LC/MS/MS)
Format: in vivo, Cynomolgus monkeys
study_conditions: female, cynomolgus monkey, dorsal root ganglion, subcutaneous; 0.1 mg/kg s.c., 180 minutes after administration, tissue homogenate, n=3; read-out: average concentration in dorsal root ganglion
result_type: concentration at 180 min (ng/mL)
Response body: numeric value in ng/mL, unit text excluded.

What value of measured concentration at 180 min is listed for `Cc1cc(C(=O)O)ccc1COc1cc2c(cc1N(CC(C)C)S(=O)(=O)c1nccs1)CCC2` ? 0.62

* * *

experiment_description: Evaluation of penetration into the center (plasma, CSF and tissue concentration by LC/MS/MS)
Type: in vivo, Cynomolgus monkeys
study_conditions: female, cynomolgus monkey, upper esophagus, subcutaneous; 0.1 mg/kg s.c., 180 minutes after administration, tissue homogenate, n=3; read-out: average concentration in upper esophagus
result_type: concentration at 180 min (ng/mL)
Field: numeric (ng/mL). Do not append units.

Consider the compound Cc1cc(C(=O)O)ccc1COc1cc2c(cc1N(CC(C)C)S(=O)(=O)c1nccs1)CCC2 [Compound A] and give its measured concentration at 180 min. 0.28

* * *

experiment_description: Evaluation of penetration into the center (plasma, CSF and tissue concentration by LC/MS/MS)
Assay type: in vivo, Cynomolgus monkeys
study_conditions: female, cynomolgus monkey, cerebrospinal fluid / plasma, subcutaneous; 0.1 mg/kg s.c., 180 minutes after administration; read-out: percentage to the concentration in plasma, cerebrospinal fluid
result_type: Kp at 180 min
The reply should be a number, written without any unit.

I have this compound here, `Cc1cc(C(=O)O)ccc1COc1cc2c(cc1N(CC(C)C)S(=O)(=O)c1nccs1)CCC2` , and I need its recorded Kp at 180 min. 0.019

* * *

experiment_description: Evaluation of penetration into the center (plasma, CSF and tissue concentration by LC/MS/MS)
Format: in vivo, Cynomolgus monkeys
study_conditions: female, cynomolgus monkey, plasma, subcutaneous; 0.1 mg/kg s.c., 180 minutes after administration, n=3; read-out: average concentration in plasma
result_type: concentration at 180 min (ng/mL)
Number only, in ng/mL; omit the unit.

Can you look up the measured concentration at 180 min of `Cc1cc(C(=O)O)ccc1COc1cc2c(cc1N(CC(C)C)S(=O)(=O)c1nccs1)CCC2` for me? 3.79

* * *

experiment_description: Evaluation of penetration into the center (plasma, CSF and tissue concentration by LC/MS/MS)
Type: in vivo, Cynomolgus monkeys
study_conditions: female, cynomolgus monkey, lower esophagus / plasma, subcutaneous; 0.1 mg/kg s.c., 180 minutes after administration; read-out: percentage to the concentration in plasma, lower esophagus
result_type: Kp at 180 min
// keep it numeric: no unit symbol after the value

Query (molecule): `Cc1cc(C(=O)O)ccc1COc1cc2c(cc1N(CC(C)C)S(=O)(=O)c1nccs1)CCC2` ; field requested: Kp at 180 min 0.067

* * *

experiment_description: Evaluation of penetration into the center (plasma, CSF and tissue concentration by LC/MS/MS)
Assay type: in vivo, Cynomolgus monkeys
study_conditions: female, cynomolgus monkey, brain stem / plasma, subcutaneous; 0.1 mg/kg s.c., 180 minutes after administration; read-out: percentage to the concentration in plasma, brain stem tissue
result_type: Kp at 180 min
Reply with just the number.

Query: Kp at 180 min; subject: `Cc1cc(C(=O)O)ccc1COc1cc2c(cc1N(CC(C)C)S(=O)(=O)c1nccs1)CCC2` 0.057
